kon reference
Target: T1, c-erbB-2 ECD with a Ser-Gly-His6 C-terminal fusion (UniProt P04626 23-652)
T1 construct: extracellular domain; Expressed from CHO cells, IMAC purified; coupled to a CM5 chip, coated on plates, or biotinylated with NHS-LC-biotin; also called c-erbB-2 extracellular domain; biotinylated c-erbB-2 ECD
Assay: SPR BIAcore

- binder: "C6-B47D3 (scFv, Combined B47 and D3 mutations on C6ML3-9) scFv: QVQLLQSGAELKKPGESLKISCKGSGYSFTSYWIAWVRQMPGKGLEYMGLIYPGDSDTKYSPSFQGQVTISVDKSVSTAYLQWSSLKPSDSAVYFCARHDVGYCTDRSCAKWPEWLDNWGQGTLVTVSSGGGGSGGGGSGGGGSQSVLTQPPSVSAAPGQKVTISCSGSSSNIGNNYVSWYQQLPGTAPKLLIYGHTNRPAGVPDRFSGSKSGTSASLAISGFRSEDEADYYCASWDYTLSGWVFGGGTKLTVLG"
  unit symbol: "M⁻¹ s⁻¹"
  kon: 660000
- binder: "C6-9L1 (scFv, C6L1 with the VL CDR3 of C6ML3-9) scFv: QVQLLQSGAELKKPGESLKISCKGSGYSFTSYWIAWVRQMPGKGLEYMGLIYPGDSDTKYSPSFQGQVTISVDKSVSTAYLQWSSLKPSDSAVYFCARHDVGYCSSSNCAKWPEYFQHWGQGTLVTVSSGGGGSGGGGSGGGGSQSVLTQPPSVSGAPGQWVTISCSGSSSNIGNNYVSWYQQLPGTAPKLLIYDNNKRPSGVPDRFSGSQSGTSASLAISGLRSEDEADYYCASWDYTLSGWVFGGGTKLTVLG"
  unit symbol: "M⁻¹ s⁻¹"
  kon: 920000
- binder: "C6-B1D3 (scFv, Combined B1 and D3 mutations on C6ML3-9) scFv: QVQLLQSGAELKKPGESLKISCKGSGYSFTSYWIAWVRQMPGKGLEYMGLIYPGDSDTKYSPSFQGQVTISVDKSVSTAYLQWSSLKPSDSAVYFCARHDVGYCTDRTCAKWPEWLDNWGQGTLVTVSSGGGGSGGGGSGGGGSQSVLTQPPSVSAAPGQKVTISCSGSSSNIGNNYVSWYQQLPGTAPKLLIYGHTNRPAGVPDRFSGSKSGTSASLAISGFRSEDEADYYCASWDYTLSGWVFGGGTKLTVLG"
  unit symbol: "M⁻¹ s⁻¹"
  kon: 640000
